experiment.notes: Thermodynamic solubility of voruciclib HCl by the shake-flask method (HPLC)
Assay type: physicochemical
condition.details: n-hexane, organic solvent or mixture, thermodynamic from solid, n-Hexane; RT, 24 h, amorphous API, HPLC; read-out: Solubility
Counter-ions that a name gives are not always drawn.
recorded.metric: solubility at 24 h

Req: Find the recorded solubility at 24 h belonging to CN1CC[C@@H](c2c(O)cc(O)c3c(=O)cc(-c4ccc(C(F)(F)F)cc4Cl)oc23)[C@@H]1CO [voruciclib HCl] and report it.
Resp: < 100 µg/mL

----------
experiment.notes: Thermodynamic solubility of voruciclib HCl by the shake-flask method (HPLC)
Assay type: physicochemical
condition.details: methyl ethyl ketone, organic solvent or mixture, thermodynamic from solid, Methyl ethyl ketone; RT, 24 h, amorphous API, HPLC; read-out: Solubility
Counter-ions that a name gives are not always drawn.
recorded.metric: solubility at 24 h (µg/mL)
Give just the number in µg/mL; leave the unit off.

Req: Find the recorded solubility at 24 h belonging to CN1CC[C@@H](c2c(O)cc(O)c3c(=O)cc(-c4ccc(C(F)(F)F)cc4Cl)oc23)[C@@H]1CO [voruciclib HCl] and report it.
Resp: 1100

----------
experiment.notes: Approximate solubility assessment of the free base by the solvent (aliquot) addition method
Format: physicochemical
condition.details: organic solvent or mixture, thermodynamic from solid; solvents other than THF, methanol, ethanol, acetone; RT; read-out: Solubility in other solvents
recorded.metric: solubility

Req: Find the recorded solubility belonging to CN1CC[C@@H](c2c(O)cc(O)c3c(=O)cc(-c4ccc(C(F)(F)F)cc4Cl)oc23)[C@@H]1CO and report it.
Resp: < 10000 µg/mL

----------
experiment.notes: Solubility of salts in water and in 0.2 M phosphate buffer pH 6 at 37° C. after 4 hours (HPLC-DAD)
Type: physicochemical
condition.details: water, 37 °C, thermodynamic from solid, secondary salt screen (FIG. 290)
recorded.metric: solubility at 4 h

Req: Find the recorded solubility at 4 h belonging to CN1CC[C@H](c2c(O)cc(O)c3c(=O)cc(-c4ccc(C(F)(F)F)cc4Cl)oc23)[C@H]1CO (stereo in doubt) [voruciclib malonate] and report it.
Resp: > 5000 µg/mL

----------
experiment.notes: Approximate solubility assessment of the free base by the solvent (aliquot) addition method
Assay type: physicochemical
condition.details: organic solvent or mixture, thermodynamic from solid; Acetonitrile; RT; approximate, solvent addition; read-out: Solubility
recorded.metric: solubility

Req: Find the recorded solubility belonging to CN1CC[C@@H](c2c(O)cc(O)c3c(=O)cc(-c4ccc(C(F)(F)F)cc4Cl)oc23)[C@@H]1CO [Voruciclib] and report it.
Resp: ~5000 µg/mL

----------
experiment.notes: Quantitative solubility determination of voruciclib malonate after the thermocycling experiments (UPLC)
Type: physicochemical
condition.details: ethyl formate, organic solvent or mixture, thermodynamic from solid, Ethyl formate, read-out: Solubility
recorded.metric: solubility (µg/mL)
Give just the number in µg/mL; leave the unit off.

Req: Find the recorded solubility belonging to CN1CC[C@H](c2c(O)cc(O)c3c(=O)cc(-c4ccc(C(F)(F)F)cc4Cl)oc23)[C@H]1CO (stereo in doubt) [voruciclib malonate] and report it.
Resp: 400

----------
experiment.notes: Solubility of salts in water and in 0.2 M phosphate buffer pH 6 at 37° C. after 4 hours (HPLC-DAD)
Assay type: physicochemical
condition.details: water, 37° C., about 1 mg salt in 1 mL, pH at end of equilibration
recorded.metric: pH (4 h)

See these solved cases before continuing.
compound	recorded.metric	test.result
CN1CC[C@@H](c2c(O)cc(O)c3c(=O)cc(-c4ccc(C(F)(F)F)cc4Cl)oc23)[C@@H]1CO.O=C(O)CC(=O)O	pH (4 h)	4.1
CN1CCC(c2c(O)cc(O)c3c(=O)cc(-c4ccc(C(F)(F)F)cc4Cl)oc23)C1CO.O=P(O)(O)O (stereo not drawn)	pH (4 h)	4.6

Now turn to the next compound.
Req: Find the recorded pH (4 h) belonging to CN1CC[C@@H](c2c(O)cc(O)c3c(=O)cc(-c4ccc(C(F)(F)F)cc4Cl)oc23)[C@@H]1CO.CN1CC[C@@H](c2c(O)cc(O)c3c(=O)cc(-c4ccc(C(F)(F)F)cc4Cl)oc23)[C@@H]1CO.O.O=C(O)C(=O)O and report it.
Resp: 4.4
